species on record: Rattus norvegicus; experiment: DrugMatrix - Regimen: Daily Repeat; assay type: toxicity, organism-based, Sprague-Dawley; set-up: regimen Daily Repeat, gender Male, age 6-8 weeks; conditions: in vivo, po, 0 mg/kg, 72 h, tissue Plasma, route oral GAVAGE, dose level Control, time 3 day, […]
experimental.readout: ALANINE AMINOTRANSFERASE (u/L)
Return type: number; implicit unit u/L.

For orientation, consider the following solved cases.
O=C(Nc1ccc(Cl)c(Cl)c1)c1cc(Cl)cc(Cl)c1O [3,3',4',5-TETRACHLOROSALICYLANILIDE]
67.17
CC(C)(c1ccc(O)cc1)c1ccc(O)cc1 [BISPHENOL A]
76.67
COC(=O)Nc1nc2ccc(C(=O)c3ccccc3)cc2[nH]1 [MEBENDAZOLE]
77
CS(=O)(=O)c1ccc(C2=C(c3ccccc3)C(=O)OC2)cc1 [ROFECOXIB]
69.67

In: Looking for the measured ALANINE AMINOTRANSFERASE of CCOC(=O)C1=C(C)NC(C)=C(C(=O)OCC)C1c1ccccc1/C=C/C(=O)OC(C)(C)C [LACIDIPINE] , can you help?
Out: 72

In: Then CC#C[C@]1(O)CC[C@H]2[C@@H]3CCC4=CC(=O)CCC4=C3[C@@H](c3ccc(N(C)C)cc3)C[C@@]21C [MIFEPRISTONE] ?
Out: 67.5

In: Then Cc1cccc(C)c1NC(=O)C(C)N (stereo not drawn) [TOCAINIDE] ?
Out: 72.83

In: Then Oc1ncnc2[nH]ncc12 [ALLOPURINOL] ?
Out: 61.33

In: Then `CO[C@H]1O[C@@H]2O[C@@]3(C)CC[C@H]4[C@H](C)CC[C@@H]([C@H]1C)[C@@]24OO3` ?
Out: 59.5

In: Then O=C(O)COC(=O)Cc1ccccc1Nc1c(Cl)cccc1Cl [ACECLOFENAC] ?
Out: 77

* * *

Measured ABSOLUTE BASOPHIL, listed per entry for reference.
species: Rattus norvegicus; assay: DrugMatrix - Regimen: Daily Repeat; format: toxicity, organism-based, Sprague-Dawley; parameters: regimen Daily Repeat, gender Male, age 6-8 weeks; settings: in vivo, po, 0 mg/kg, 72 h, tissue Blood, route oral GAVAGE, dose level Control, time 3 day, vehicle 100 % SALINE
Return type: number; implicit unit CELLS/uL.

Cc1ccnc2c1NC(=O)c1cccnc1N2C1CC1 [NEVIRAPINE]
0
CCN(CC)N=O [N-NITROSODIETHYLAMINE]
0
CCO [ALCOHOL]
0
O=[As][O-].[Na+] [SODIUM ARSENITE]
0

Kindly consider the entry below.
In: Looking for the measured ABSOLUTE BASOPHIL of CC(CN1c2ccccc2Sc2ccccc21)N(C)C (stereo not given) [PROMETHAZINE] , can you help?
Out: 0

* * *

organism: Rattus norvegicus; assay: DrugMatrix - Regimen: Daily Repeat; format: toxicity, organism-based, Sprague-Dawley; parameters: regimen Daily Repeat, gender Male, age 6-8 weeks; settings: in vivo, po, 0 mg/kg, 120 h, tissue Plasma, route oral GAVAGE, dose level Control, time 5 day, vehicle .5 % CMC
Measured CREATINE PHOSPHOKINASE, listed per entry for reference.
Return type: number; implicit unit u/L.

CC(C)(C#N)c1cc(Cn2cncn2)cc(C(C)(C)C#N)c1
239.5
O=C(O)CCc1nc(-c2ccccc2)c(-c2ccccc2)o1
273.5
CN(C)CCC=C1c2ccccc2COc2ccccc21 [DOXEPIN]
120.33
Nc1ccc(C(=O)O)c(O)c1
130
CC(C)Cc1ccc([C@H](C)C(=O)O)cc1
148.33
CCN1CCCC1CNC(=O)c1cc(S(N)(=O)=O)ccc1OC (stereo unspecified) [SULPIRIDE]
273.5
CCN(CC)CCNC(=O)c1cc(Cl)c(N)cc1OC [METOCLOPRAMIDE]
110.67
NC(=O)NC(=O)Cc1ccccc1 [PHENACEMIDE]
171.83

In: Looking for the measured CREATINE PHOSPHOKINASE of `O=C1c2ccccc2C(=O)C1c1ccccc1` , can you help?
Out: 148.33

In: Then CCOc1cc(N)c(Cl)cc1C(=O)NCC1CN(Cc2ccc(F)cc2)CCO1 (stereo unspecified) [MOSAPRIDE] ?
Out: 417.5

* * *

organism: Rattus norvegicus; assay: DrugMatrix - Regimen: Daily Repeat; type: toxicity, organism-based, Sprague-Dawley; set-up: regimen Daily Repeat, gender Male, age 6-8 weeks; settings: in vivo, po, 0 mg/kg, 120 h, tissue Plasma, route oral GAVAGE, dose level Control, time 5 day, […]
Decide using CHOLESTEROL: a value greater than or equal to 60 mg/dL is 1 (yes), a smaller one is 0 (no).

Take a look at these entries with their results.
c1ccc2c(c1)Nc1ccccc1S2
1 (yes)
Cc1cccc(C)c1NC(=O)C(C)N (centres undefined) [TOCAINIDE]
1 (yes)

In: Please indicate if the recorded CHOLESTEROL for `CCOC(=O)C1=C(C)NC(C)=C(C(=O)OCC)C1c1ccccc1/C=C/C(=O)OC(C)(C)C` meets or exceeds 60 mg/dL.
Out: 0 (no)

In: Then `CC(C)(c1ccc(O)cc1)c1ccc(O)cc1` ?
Out: 0 (no)

In: Then O=C(Nc1ccc(Cl)c(Cl)c1)c1cc(Cl)cc(Cl)c1O [3,3',4',5-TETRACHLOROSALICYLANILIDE] ?
Out: 0 (no)

In: Then `CCC(C)(C)C(=O)O[C@H]1C[C@@H](C)C=C2C=C[C@H](C)[C@H](CC[C@@H]3C[C@@H](O)CC(=O)O3)[C@H]21` ?
Out: 1 (yes)

In: Then `Oc1ncnc2[nH]ncc12` ?
Out: 1 (yes)

In: Then `CS(=O)(=O)c1ccc(C2=C(c3ccccc3)C(=O)OC2)cc1` ?
Out: 1 (yes)

In: Then `CO[C@H]1O[C@@H]2O[C@@]3(C)CC[C@H]4[C@H](C)CC[C@@H]([C@H]1C)[C@@]24OO3` ?
Out: 1 (yes)

* * *

organism: Rattus norvegicus; experiment: DrugMatrix - Regimen: Daily Repeat; assay type: toxicity, organism-based, Sprague-Dawley; set-up: regimen Daily Repeat, gender Male, age 6-8 weeks; conditions: in vivo, po, 0 mg/kg, 72 h, tissue Blood, route oral GAVAGE, dose level Control, time 3 day, […]
experimental.readout: ERYTHROCYTE COUNT
Answer by giving the amount and then stating its unit.

For orientation, consider the following solved cases.
COC(=O)Nc1nc2ccc(C(=O)c3ccccc3)cc2[nH]1
5.43 x10E6/uL
CO[C@H]1O[C@@H]2O[C@@]3(C)CC[C@H]4[C@H](C)CC[C@@H]([C@H]1C)[C@@]24OO3
5.8 x10E6/uL
Cc1cccc(C)c1NC(=O)C(C)N (centres undefined) [TOCAINIDE]
5.6 x10E6/uL
Oc1ncnc2[nH]ncc12
5.51 x10E6/uL
CC(C)(c1ccc(O)cc1)c1ccc(O)cc1
5.46 x10E6/uL

In: Looking for the measured ERYTHROCYTE COUNT of `CCC(C)(C)C(=O)O[C@H]1C[C@@H](C)C=C2C=C[C@H](C)[C@H](CC[C@@H]3C[C@@H](O)CC(=O)O3)[C@H]21` , can you help?
Out: 5.08 x10E6/uL

In: Then `O=C(O)COC(=O)Cc1ccccc1Nc1c(Cl)cccc1Cl` ?
Out: 5.43 x10E6/uL

In: Then `CS(=O)(=O)c1ccc(C2=C(c3ccccc3)C(=O)OC2)cc1` ?
Out: 5.2 x10E6/uL

In: Then `CCOC(=O)C1=C(C)NC(C)=C(C(=O)OCC)C1c1ccccc1/C=C/C(=O)OC(C)(C)C` ?
Out: 5.44 x10E6/uL

* * *

species on record: Rattus norvegicus; test: DrugMatrix - Regimen: Daily Repeat; type: toxicity, organism-based, Sprague-Dawley; set-up: regimen Daily Repeat, gender Male, age 6-8 weeks; settings: in vivo, po, 1500 mg/kg, 120 h, tissue Plasma, route oral GAVAGE, dose level High, time 5 day, vehicle .5 % CMC
Measured GLUCOSE, listed per entry for reference.
Return type: number; implicit unit mg/dL.

O=C(O)CCc1nc(-c2ccccc2)c(-c2ccccc2)o1 [OXAPROZIN]
126
COc1ccc(Cl)cc1C(=O)NCCc1ccc(S(=O)(=O)NC(=O)NC2CCCCC2)cc1 [GLYBURIDE]
135
COc1cc(/C=C/C(=O)O)ccc1O [FERULATE]
164.33
Cc1ccc(S(=O)(=O)NC(=O)NN2CCCCCC2)cc1 [TOLAZAMIDE]
138.67

In: Looking for the measured GLUCOSE of CC[C@H]1OC(=O)[C@H](C)[C@@H](O[C@H]2C[C@@](C)(OC)[C@@H](O)[C@H](C)O2)[C@H](C)[C@@H](O[C@@H]2O[C@H](C)C[C@H](N(C)C)[C@H]2O)[C@](C)(O)C[C@@H](C)C(=O)[C@H](C)[C@@H](O)[C@]1(C)O [ERYTHROMYCIN] , can you help?
Out: 130.33
